test system: Escherichia coli TOP10; assay: shrunken log2 fold change of peptide-encoding DNA abundance (4.5 h post-induction vs induction); higher = less antimicrobial activity (less host growth inhibition); conditions: time post-induction: 4.5 h; library: site-saturation at positions 5, 18, 19, 20
# shrunken log2 fold change annotations
Measurement Kind: shrunken log2 fold change

Construct Sequence | Measurement Kind | Result Value
RRIRVRPPRLPRPRPRPDGKPRP | shrunken log2 fold change | -0.0236
RRIRFRPPRLPRPRPRPEQCPRP | shrunken log2 fold change | 0.285
RRIRRRPPRLPRPRPRPWNDPRP | shrunken log2 fold change | -0.345
RRIRFRPPRLPRPRPRPLHYPRP | shrunken log2 fold change | -0.299
RRIRTRPPRLPRPRPRPEPVPRP | shrunken log2 fold change | 0.272
RRIRPRPPRLPRPRPRPMKDPRP | shrunken log2 fold change | -0.313
RRIRHRPPRLPRPRPRPHREPRP | shrunken log2 fold change | 0.00911
RRIRMRPPRLPRPRPRPTSMPRP | shrunken log2 fold change | 0.0931

---

tested on: Escherichia coli TOP10; experiment: shrunken log2 fold change of peptide-encoding DNA abundance (4.5 h post-induction vs induction); higher = less antimicrobial activity (less host growth inhibition); conditions: time post-induction: 4.5 h; library: site-saturation at positions 5, 18, 19, 20
# shrunken log2 fold change annotations

Construct Sequence | shrunken log2 fold change
RRIRMRPPRLPRPRPRPIWDPRP | 0.0663
RRIRGRPPRLPRPRPRPNWQPRP | 0.0611
RRIRLRPPRLPRPRPRPPEVPRP | -0.0157
RRIRWRPPRLPRPRPRPCDTPRP | -0.165
RRIRFRPPRLPRPRPRPEYWPRP | -0.245
RRIRIRPPRLPRPRPRPCYHPRP | -0.265
RRIRRRPPRLPRPRPRPVPMPRP | 0.452
RRIRKRPPRLPRPRPRPMDIPRP | 0.0655
RRIRVRPPRLPRPRPRPFPAPRP | -0.121
RRIRERPPRLPRPRPRPWFCPRP | -0.375
RRIRRRPPRLPRPRPRPDKCPRP | -0.0562
RRIRRRPPRLPRPRPRPQFQPRP | 0.00665
RRIRHRPPRLPRPRPRPYEVPRP | 0.028
RRIRSRPPRLPRPRPRPNHRPRP | -0.426
RRIRFRPPRLPRPRPRPEFGPRP | 0.0197

---

# shrunken log2 fold change annotations
test system: Escherichia coli TOP10; assay: shrunken log2 fold change of peptide-encoding DNA abundance (4.5 h post-induction vs induction); higher = less antimicrobial activity (less host growth inhibition); settings: time post-induction: 4.5 h; library: site-saturation at positions 5, 18, 19, 20
Measurement Kind: shrunken log2 fold change

Construct Sequence | Result Value
RRIRYRPPRLPRPRPRPTVIPRP | -0.146
RRIRYRPPRLPRPRPRPPEHPRP | -0.0551
RRIRLRPPRLPRPRPRPYVPPRP | -0.383
RRIRYRPPRLPRPRPRPPHFPRP | -0.139
RRIRHRPPRLPRPRPRPQWRPRP | 0.324
RRIRERPPRLPRPRPRPYAIPRP | -0.52
RRIRCRPPRLPRPRPRPNILPRP | -0.701
RRIRDRPPRLPRPRPRPNMKPRP | 0.818
RRIRRRPPRLPRPRPRPVLSPRP | 0.0336
RRIRLRPPRLPRPRPRPFSMPRP | -0.0455
RRIRCRPPRLPRPRPRPLTFPRP | -0.419
RRIRPRPPRLPRPRPRPYWWPRP | 0.0199
RRIRIRPPRLPRPRPRPNQAPRP | -0.0486
RRIRDRPPRLPRPRPRPQAEPRP | -0.129
RRIRPRPPRLPRPRPRPEAWPRP | -0.0196
RRIRQRPPRLPRPRPRPCCGPRP | 0.0293
RRIRARPPRLPRPRPRPAYSPRP | -0.0547
RRIRQRPPRLPRPRPRPWCVPRP | -0.115
RRIRNRPPRLPRPRPRPHNEPRP | -0.509
RRIRERPPRLPRPRPRPMLMPRP | -0.142
RRIRERPPRLPRPRPRPFQAPRP | -0.215
RRIRPRPPRLPRPRPRPNPYPRP | -0.465
RRIRLRPPRLPRPRPRPRQEPRP | 0.0259
RRIRARPPRLPRPRPRPDFLPRP | 0.257
RRIRTRPPRLPRPRPRPWSIPRP | -0.325
RRIRYRPPRLPRPRPRPWSMPRP | -0.221
RRIRFRPPRLPRPRPRPLPWPRP | -0.195
RRIRRRPPRLPRPRPRPDKLPRP | -0.115
RRIRNRPPRLPRPRPRPSLGPRP | 0.0885
RRIRSRPPRLPRPRPRPKEMPRP | 0.187
RRIRDRPPRLPRPRPRPKAIPRP | -0.0326
RRIRRRPPRLPRPRPRPIHTPRP | 0.00898

---

# shrunken log2 fold change annotations
system: Escherichia coli TOP10; test: shrunken log2 fold change of peptide-encoding DNA abundance (4.5 h post-induction vs induction); higher = less antimicrobial activity (less host growth inhibition); details: time post-induction: 4.5 h; library: site-saturation at positions 5, 18, 19, 20

Construct Sequence | shrunken log2 fold change
RRIRARPPRLPRPRPRPLFDPRP | 0.28
RRIRCRPPRLPRPRPRPKEMPRP | 0.0303
RRIRNRPPRLPRPRPRPEENPRP | -0.00776
RRIRHRPPRLPRPRPRPFFHPRP | -0.454
RRIRNRPPRLPRPRPRPPRQPRP | 0.449
RRIRHRPPRLPRPRPRPLNRPRP | 0.0215
RRIRDRPPRLPRPRPRPKNRPRP | 0.0678
RRIRCRPPRLPRPRPRPTKCPRP | -0.0551

---

tested on: Escherichia coli TOP10; assay: shrunken log2 fold change of peptide-encoding DNA abundance (4.5 h post-induction vs induction); higher = less antimicrobial activity (less host growth inhibition); conditions: time post-induction: 4.5 h; library: site-saturation at positions 5, 18, 19, 20

Construct Sequence | Study System | shrunken log2 fold change
RRIRNRPPRLPRPRPRPTWGPRP | Escherichia coli TOP10 | -0.00179
RRIRPRPPRLPRPRPRPDDHPRP | Escherichia coli TOP10 | -0.0314
RRIRTRPPRLPRPRPRPHNIPRP | Escherichia coli TOP10 | -0.455
RRIRMRPPRLPRPRPRPKWFPRP | Escherichia coli TOP10 | 0.275
RRIRHRPPRLPRPRPRPQSSPRP | Escherichia coli TOP10 | -0.0152
RRIRNRPPRLPRPRPRPDVPPRP | Escherichia coli TOP10 | -0.199
RRIRQRPPRLPRPRPRPNHPPRP | Escherichia coli TOP10 | -0.249
RRIRGRPPRLPRPRPRPFGDPRP | Escherichia coli TOP10 | 0.0154
RRIRNRPPRLPRPRPRPYIVPRP | Escherichia coli TOP10 | -0.314
RRIRQRPPRLPRPRPRPGPGPRP | Escherichia coli TOP10 | 0.507
RRIRLRPPRLPRPRPRPCAYPRP | Escherichia coli TOP10 | -0.189
RRIRVRPPRLPRPRPRPVCEPRP | Escherichia coli TOP10 | 0.206
RRIRKRPPRLPRPRPRPHFCPRP | Escherichia coli TOP10 | -0.167
RRIRKRPPRLPRPRPRPDAEPRP | Escherichia coli TOP10 | 1.59
RRIRMRPPRLPRPRPRPLAMPRP | Escherichia coli TOP10 | 0.548

---

test system: Escherichia coli TOP10; test: shrunken log2 fold change of peptide-encoding DNA abundance (4.5 h post-induction vs induction); higher = less antimicrobial activity (less host growth inhibition); settings: time post-induction: 4.5 h; library: site-saturation at positions 5, 18, 19, 20;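 note: peptides expressed intracellularly from a pBAD plasmid library in pooled LB shake-flask culture, induced with 0.3% L-arabinose, DNA abundance read by NGS, three biological replicates, DESeq2 with apeglm shrinkage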
Measurement Kind: shrunken log2 fold change

Construct Sequence | Result Value
RRIRWRPPRLPRPRPRPFRIPRP | -0.5
RRIRHRPPRLPRPRPRPFKEPRP | -0.289
RRIRDRPPRLPRPRPRPQCDPRP | -0.0921
RRIRGRPPRLPRPRPRPEKWPRP | -0.0809
RRIRLRPPRLPRPRPRPWSNPRP | -0.195
RRIRQRPPRLPRPRPRPAQFPRP | 0.237
RRIRWRPPRLPRPRPRPEWLPRP | 0.803
RRIRNRPPRLPRPRPRPIANPRP | 0.000407
RRIRRRPPRLPRPRPRPKMCPRP | -0.0385
RRIRFRPPRLPRPRPRPAFQPRP | 0.243
RRIRFRPPRLPRPRPRPDYVPRP | -0.00174
RRIRMRPPRLPRPRPRPHYSPRP | -0.624
RRIRWRPPRLPRPRPRPQLQPRP | 0.229
RRIRCRPPRLPRPRPRPHCWPRP | -0.0254
RRIRERPPRLPRPRPRPGHVPRP | -0.00285
RRIRGRPPRLPRPRPRPMQNPRP | 0.873
RRIRQRPPRLPRPRPRPISAPRP | -0.0212
RRIRKRPPRLPRPRPRPCTYPRP | 0.0972
RRIRDRPPRLPRPRPRPNCVPRP | 0.0238
RRIRLRPPRLPRPRPRPSGSPRP | 0.182
RRIRKRPPRLPRPRPRPDCFPRP | 0.315
RRIRTRPPRLPRPRPRPHNMPRP | -0.651
RRIRARPPRLPRPRPRPNWHPRP | 0.163
RRIRYRPPRLPRPRPRPGSEPRP | -0.202
RRIRDRPPRLPRPRPRPMRHPRP | 0.089
RRIRWRPPRLPRPRPRPNCMPRP | -0.302
RRIRVRPPRLPRPRPRPKEQPRP | -0.0164
RRIRIRPPRLPRPRPRPLFLPRP | -0.653
RRIRIRPPRLPRPRPRPEEQPRP | 0.0175
RRIRNRPPRLPRPRPRPELGPRP | 0.193
RRIRIRPPRLPRPRPRPGVMPRP | -0.346
RRIRSRPPRLPRPRPRPCSNPRP | -0.0564
RRIRGRPPRLPRPRPRPTLKPRP | 0.769
RRIRTRPPRLPRPRPRPNFSPRP | 0.059
RRIRDRPPRLPRPRPRPMNEPRP | 0.202
RRIRDRPPRLPRPRPRPVAAPRP | 0.833
RRIRNRPPRLPRPRPRPDSVPRP | 0.119
RRIRSRPPRLPRPRPRPMTWPRP | -0.0238
RRIRPRPPRLPRPRPRPITPPRP | 0.0216
RRIRCRPPRLPRPRPRPPGDPRP | 0.346
RRIRVRPPRLPRPRPRPPNMPRP | -0.316
RRIRHRPPRLPRPRPRPIYMPRP | -0.0111
RRIRGRPPRLPRPRPRPRYCPRP | 0.295
RRIRQRPPRLPRPRPRPKCLPRP | 0.0772
RRIRPRPPRLPRPRPRPIGEPRP | -0.0647
RRIRSRPPRLPRPRPRPRANPRP | 0.174
RRIRHRPPRLPRPRPRPRACPRP | 0.0227
RRIRYRPPRLPRPRPRPGFWPRP | 0.689
RRIRTRPPRLPRPRPRPVPEPRP | 0.323
RRIRYRPPRLPRPRPRPANSPRP | -0.11
RRIRERPPRLPRPRPRPKQEPRP | -0.127
RRIRKRPPRLPRPRPRPRRSPRP | 0.0846
RRIRLRPPRLPRPRPRPSNAPRP | -0.204
RRIRARPPRLPRPRPRPTLYPRP | -0.034
RRIRNRPPRLPRPRPRPEHSPRP | 0.0507
RRIRFRPPRLPRPRPRPMRHPRP | 0.0162
RRIRLRPPRLPRPRPRPMPQPRP | 0.164
RRIRPRPPRLPRPRPRPRATPRP | 0.261
RRIRERPPRLPRPRPRPPKSPRP | 0.21
RRIRGRPPRLPRPRPRPQDKPRP | 0.0315
RRIRVRPPRLPRPRPRPWILPRP | 0.000714
RRIRRRPPRLPRPRPRPGTNPRP | 0.0926
RRIRQRPPRLPRPRPRPSAEPRP | 0.117
